Test system: Staphylococcus aureus
test.name: Antibacterial activity, disc diffusion method
Assay type: cell-based
protocol.conditions: Staphylococcus aureus; read-out: Staphylococcus aureus 40 ug/ml (percentage inhibition)
measure.name: inhibition at 40 µg/mL
Quick note: number first, unit second.

Q: Please give the documented inhibition at 40 µg/mL of C#CCOc1ccc(C(C)(C)c2ccc(OCC#C)cc2)cc1
Result: 29.1%

Q: Please give the documented inhibition at 40 µg/mL of C#CCOc1cccc2ccccc12
Result: -1.85%

Q: Please give the documented inhibition at 40 µg/mL of C#CCOc1ccc(F)cc1Br
Result: 32%

Q: Please give the documented inhibition at 40 µg/mL of CC1(C)S[C@@H]2[C@H](NC(=O)[C@H](N)c3ccccc3)C(=O)N2[C@H]1C(=O)O [Ampicilline, reference compound]
Result: 29.9%
